molecular target: c-Raf (Homo sapiens); assay: Luciferase-coupled chemiluminescence kinase assay (ATP consumption), c-Raf; assay type: biochemical; conditions: read-out: cRaf-1 IC50
Sequence (P04049 whole entry): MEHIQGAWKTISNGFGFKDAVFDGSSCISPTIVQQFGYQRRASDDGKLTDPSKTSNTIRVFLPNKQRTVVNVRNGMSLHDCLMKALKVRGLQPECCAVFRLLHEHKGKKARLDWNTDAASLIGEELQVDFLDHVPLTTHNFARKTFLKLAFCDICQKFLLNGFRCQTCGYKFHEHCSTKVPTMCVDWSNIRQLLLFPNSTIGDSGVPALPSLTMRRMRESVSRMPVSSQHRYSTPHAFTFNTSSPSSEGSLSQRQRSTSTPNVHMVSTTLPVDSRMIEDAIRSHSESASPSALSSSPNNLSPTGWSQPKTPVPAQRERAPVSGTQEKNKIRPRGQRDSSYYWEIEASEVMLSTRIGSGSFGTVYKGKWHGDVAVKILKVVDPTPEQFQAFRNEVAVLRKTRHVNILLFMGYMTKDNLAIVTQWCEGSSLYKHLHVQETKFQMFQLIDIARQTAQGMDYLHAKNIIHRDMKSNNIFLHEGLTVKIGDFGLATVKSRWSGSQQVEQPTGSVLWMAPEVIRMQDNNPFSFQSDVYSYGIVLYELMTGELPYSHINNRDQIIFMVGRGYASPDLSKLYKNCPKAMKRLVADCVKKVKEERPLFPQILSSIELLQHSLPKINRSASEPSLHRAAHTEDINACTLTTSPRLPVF
pIC50: −log10 of the molar value.
Record form. Attribute: pIC50. Fill in for each entry.

Return reported pIC50; argument: O=C1c2ccccc2C(O)(c2ccc3cn[nH]c3c2)N1Cc1ccccc1 (stereo not shown)
≤ 5.00

Return reported pIC50; argument: O=C1COc2ccc(C3(O)c4ccccc4C(=O)N3c3cccc([N+](=O)[O-])c3)cc2N1 (stereo not shown)
6.00 to 7.00

Return reported pIC50; argument: COC(=O)Nc1nc2cc(C3(O)c4ccccc4C(=O)N3Cc3ccccc3C)ccc2[nH]1 (stereo not shown)
> 7.00

Return reported pIC50; argument: COC(=O)Nc1nc2cc(C3(O)c4ccccc4C(=O)N3c3cccc(C#N)c3)ccc2[nH]1 (stereo not shown)
6.00 to 7.00

Return reported pIC50; argument: CCc1cc(N2C(=O)c3ccccc3C2(O)c2ccc3[nH]c(NC(=O)OC)nc3c2)ccc1F (stereo not shown)
> 7.00

Return reported pIC50; argument: O=C1c2ccccc2C(O)(c2ccc3cc[nH]c3c2)N1Cc1ccccc1 (stereo not shown)
≤ 5.00

Return reported pIC50; argument: CC(C)(CO)COC(=O)Nc1nc2cc(C3(O)c4ccccc4C(=O)N3Cc3ccccc3)ccc2[nH]1 (stereo not shown)
6.00 to 7.00

Return reported pIC50; argument: COC(=O)Nc1nc2cc(C3(O)c4ccccc4C(=O)N3Cc3cccnc3)ccc2[nH]1 (stereo not shown)
6.00 to 7.00

Return reported pIC50; argument: CCCC(=O)Nc1nc2ccc(C3(O)c4ccccc4C(=O)N3c3ccc(F)cc3)cc2[nH]1 (stereo not shown)
> 7.00

Return reported pIC50; argument: COC(=O)Nc1nc2cc(C3(O)c4ccccc4C(=O)N3c3cccc(CN(C)C)c3)ccc2[nH]1 (stereo not shown)
6.00 to 7.00

Return reported pIC50; argument: CC[C@@H](c1ccccc1)N1C(=O)c2ccccc2C1(O)c1ccc2[nH]c(NC(=O)OC)nc2c1 (stereo partly shown)
5.00 to 6.00

Return reported pIC50; argument: COC(=O)Nc1nc2cc(C3(O)c4ccccc4C(=O)N3Cc3ccccc3OC)ccc2[nH]1 (stereo not shown)
5.00 to 6.00

Return reported pIC50; argument: COC(=O)Nc1nc2ccc(C3(C)c4ccccc4C(=O)N3c3cccc(C(F)(F)F)c3)cc2[nH]1 (stereo not shown)
> 7.00

Return reported pIC50; argument: O=C1COc2ccc(C3(O)c4ccccc4C(=O)N3c3cccc(Br)c3)cc2N1 (stereo not shown)
> 7.00

Return reported pIC50; argument: O=C(Nc1nc2cc(C3(O)c4ccccc4C(=O)N3Cc3ccccc3)ccc2[nH]1)OCc1ccccc1 (stereo not shown)
> 7.00

Return reported pIC50; argument: COC(=O)Nc1nc2cc(C3(O)c4ccccc4C(=O)N3c3ccccc3C)ccc2[nH]1 (stereo not shown)
> 7.00
